Overview of recorded % of compound remaining when incubated in human liver microsomes with NADPH for various molecules
protocol.summary: In vitro microsomal stability, human
Type: in vitro ADME
study.conditions: human liver microsomes, NADPH, 30 min
Response body: numeric value in %, unit text excluded.

Past entries and their recorded results:
Ask | Given CC(O)C(O)CCNC(=O)[C@@H]1N[C@H](CC(C)(C)C)[C@]2(C(=O)Nc3cc(Cl)c(F)cc32)[C@H]1c1cccc(Cl)c1 (stereo partly shown) , state its recorded % of compound remaining when incubated in human liver microsomes with NADPH.
Reply | 22.75

Ask | CC(C)(C)C[C@H]1N[C@@H](C(=O)NC2CCC(NS(C)(=O)=O)CC2)[C@H](c2cccc(Cl)c2F)[C@@]12C(=O)Nc1cc(Cl)ccc12 (stereo partly shown) [MI-771] , same question.
Reply | 0.82

Ask | CC(C)(C)C[C@H]1N[C@@H](C(=O)NCC[C@H](O)CN2CC[C@@H](O)C2)[C@H](c2cccc(Cl)c2)[C@@]12C(=O)Nc1cc(Cl)c(F)cc12 , same question.
Reply | 45.48

Ask | CC(C)(C)C[C@H]1N[C@@H](C(=O)NCC[C@H](O)CN2CCCC2)[C@H](c2cccc(Cl)c2)[C@@]12C(=O)Nc1cc(Cl)c(F)cc12 , same question.
Reply | 66.83

More entries:
Ask | Given CC(C)(C)C[C@H]1N[C@@H](C(=O)N[C@H]2CC[C@@H](O)C2)[C@H](c2cccc(Cl)c2F)[C@@]12C(=O)Nc1cc(Cl)ccc12 , state its recorded % of compound remaining when incubated in human liver microsomes with NADPH.
Reply | 0.00

Ask | CC(C)(C)C[C@H]1N[C@@H](C(=O)NCC[C@H](O)CNC(C)(C)C)[C@H](c2cccc(Cl)c2)[C@@]12C(=O)Nc1cc(Cl)c(F)cc12 , same question.
Reply | 47.41

Ask | CC(C)(C)C[C@H]1N[C@@H](C(=O)NC2CCC(NS(C)(=O)=O)CC2)[C@H](c2cccc(Cl)c2F)[C@@]12C(=O)Nc1cc(Cl)ccc12 (stereo partly shown) [MI-772] , same question.
Reply | 77.91

Ask | CC(C)(C)C[C@H]1N[C@@H](C(=O)NC2CCC(O)CC2)[C@H](c2cccc(Cl)c2F)[C@@]12C(=O)Nc1cc(Cl)ccc12 (stereo partly shown) , same question.
Reply | 52.36

Ask | CC(C)(C)C[C@H]1N[C@@H](C(=O)N[C@H]2CC[C@@H](O)C2)[C@H](c2cccc(Cl)c2)[C@@]12C(=O)Nc1cc(Cl)c(F)cc12 , same question.
Reply | 2.30

Ask | CC(C)(C)C[C@H]1N[C@@H](C(=O)NCCC(C)(O)CO)[C@H](c2cccc(Cl)c2)[C@@]12C(=O)Nc1cc(Cl)c(F)cc12 (stereo partly shown) , same question.
Reply | 65.20

----------
Overview of recorded AUC(0-t) for various compounds
protocol.summary: Pharmacokinetic studies in rats
Assay type: in vivo, rat
study.conditions: rat, plasma; male rats, oral dose 15 mg/kg; read-out: AUC(0-t)
Include the unit after the number when you answer.

Ask | Given CC(C)(C)C[C@H]1N[C@@H](C(=O)NCC[C@H](O)CN2CC[C@@H](O)C2)[C@H](c2cccc(Cl)c2)[C@@]12C(=O)Nc1cc(Cl)c(F)cc12 , state its recorded AUC(0-t).
Reply | 28 µg·h/mL

More entries:
Ask | Given CC(C)(C)C[C@H]1N[C@@H](C(=O)NCC[C@H](O)CN2CCCC2)[C@H](c2cccc(Cl)c2)[C@@]12C(=O)Nc1cc(Cl)c(F)cc12 , state its recorded AUC(0-t).
Reply | 419 µg·h/mL

Ask | CC(C)(C)C[C@H]1N[C@@H](C(=O)NCCC(C)(O)CO)[C@H](c2cccc(Cl)c2)[C@@]12C(=O)Nc1cc(Cl)c(F)cc12 (stereo partly shown) , same question.
Reply | 4280 µg·h/mL

Ask | CC(C)(C)C[C@H]1N[C@@H](C(=O)NCC[C@H](O)CNC(C)(C)C)[C@H](c2cccc(Cl)c2)[C@@]12C(=O)Nc1cc(Cl)c(F)cc12 , same question.
Reply | 101 µg·h/mL

----------
protocol.summary: In vitro microsomal stability, human
Type: in vitro ADME
study.conditions: 15 min
Overview of recorded % of compound remaining when incubated in human liver microsomes with NADPH for various compounds
Include the unit after the number when you answer.

Ask | Given CC(C)(C)C[C@H]1N[C@@H](C(=O)N[C@H]2C[C@@](C)(O)C2)[C@H](c2cccc(Cl)c2F)[C@@]12C(=O)Nc1cc(Cl)ccc12 , state its recorded % of compound remaining when incubated in human liver microsomes with NADPH.
Reply | 65.86%

Ask | CC(C)(C)C[C@H]1N[C@@H](C(=O)NC2CC(O)C2)[C@H](c2cccc(Cl)c2F)[C@@]12C(=O)Nc1cc(Cl)ccc12 (stereo partly shown) , same question.
Reply | 51.54%

Ask | CC(O)C(O)CCNC(=O)[C@@H]1N[C@H](CC(C)(C)C)[C@]2(C(=O)Nc3cc(Cl)c(F)cc32)[C@H]1c1cccc(Cl)c1 (stereo partly shown) , same question.
Reply | 45.42%

Ask | CC(C)(C)C[C@H]1N[C@@H](C(=O)N[C@H]2C[C@@H](O)C2)[C@H](c2cccc(Cl)c2F)[C@@]12C(=O)Nc1cc(Cl)ccc12 (stereo in doubt) , same question.
Reply | 50.42%

----------
Test system: SJSA-1 xenograft tumors
protocol.summary: In vivo efficacy, SJSA-1 xenograft model (tumor volume)
Set-up: species or system C.B-17 SCID mice
study.conditions: Exp. No. 2, SJSA-1 xenograft, PO 100 mg/kg, D24
endpoint.name: % Tumor Growth Inhib. T/C Control 750 mm^3 D24 (%)
Response body: numeric value in %, unit text excluded.

Past entries and their recorded results:
Ask | Given CC(C)(C)C[C@H]1N[C@@H](C(=O)N[C@H]2C[C@@H](O)C2)[C@H](c2cccc(Cl)c2F)[C@@]12C(=O)Nc1cc(Cl)ccc12 (stereo in doubt) [MI-519-63] , state its recorded % Tumor Growth Inhib. T/C Control 750 mm^3 D24.
Reply | 0.0

Ask | CC(C)(C)C[C@H]1N[C@@H](C(=O)NC2CCC(NS(C)(=O)=O)CC2)[C@H](c2cccc(Cl)c2F)[C@@]12C(=O)Nc1cc(Cl)ccc12 (stereo partly shown) [MI-772] , same question.
Reply | 71.1

Ask | CCNC(=O)N1CCC(NC(=O)[C@@H]2N[C@H](CC(C)(C)C)[C@]3(C(=O)Nc4cc(Cl)ccc43)[C@H]2c2cccc(Cl)c2F)CC1 [MI-781] , same question.
Reply | 75.5

Next up:
Ask | Given C[C@H](N)C(=O)OC1CCC(NC(=O)[C@@H]2N[C@H](CC(C)(C)C)[C@]3(C(=O)Nc4cc(Cl)ccc43)[C@H]2c2cccc(Cl)c2F)CC1 (stereo partly shown) [MI-774] , state its recorded % Tumor Growth Inhib. T/C Control 750 mm^3 D24.
Reply | 21.4

----------
target.or.system: recombinant human His-tagged MDM2 protein (residues 1-118) (Homo sapiens (Human), UniProt Q00987)
Sequence (Q00987 1-118): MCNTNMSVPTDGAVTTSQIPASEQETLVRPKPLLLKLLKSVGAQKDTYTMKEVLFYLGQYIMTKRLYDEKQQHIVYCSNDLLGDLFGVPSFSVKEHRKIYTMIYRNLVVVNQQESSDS
protocol.summary: Fluorescence-polarization MDM2 binding assay;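 also: fluorescence polarization read after three hours of incubation in potassium phosphate buffer containing bovine gamma globulin and Triton X-100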
study.conditions: Table 19A; FP binding assay; read-out: MDM2 IC50
Overview of recorded IC50 for various compounds

Ask | Given CC(C)(C)C[C@H]1N[C@@H](C(=O)NCCCN2CCCC2)[C@H](c2cccc(Cl)c2F)[C@@]12C(=O)Nc1cc(Cl)c(F)cc12 , state its recorded IC50.
Reply | < 1000 nM

Next up:
Ask | Given CC(=O)N1CC(NC(=O)[C@@H]2N[C@H](CC(C)(C)C)[C@]3(C(=O)Nc4cc(Cl)ccc43)[C@H]2c2cccc(Cl)c2F)C1 , state its recorded IC50.
Reply | < 3000 nM

----------
protocol.summary: In vitro microsomal stability, human
Type: in vitro ADME
study.conditions: human liver microsomes, NADPH, 5 min
endpoint.name: % of compound remaining when incubated in human liver microsomes with NADPH
Include the unit after the number when you answer.

Past entries and their recorded results:
Ask | Given CC(C)(C)C[C@H]1N[C@@H](C(=O)NCCC(C)(O)CO)[C@H](c2cccc(Cl)c2)[C@@]12C(=O)Nc1cc(Cl)c(F)cc12 (stereo partly shown) , state its recorded % of compound remaining when incubated in human liver microsomes with NADPH.
Reply | 95.88%

Ask | CC(C)(C)C[C@H]1N[C@@H](C(=O)NC2CCC(O)CC2)[C@H](c2cccc(Cl)c2F)[C@@]12C(=O)Nc1cc(Cl)ccc12 (stereo partly shown) , same question.
Reply | 83.70%

Ask | CC(C)(C)C[C@H]1N[C@@H](C(=O)NC2CCC(NS(C)(=O)=O)CC2)[C@H](c2cccc(Cl)c2F)[C@@]12C(=O)Nc1cc(Cl)ccc12 (stereo partly shown) [MI-772] , same question.
Reply | 95.37%

More entries:
Ask | Given CC(C)(C)C[C@H]1N[C@@H](C(=O)NCC[C@H](O)CN2CCCC2)[C@H](c2cccc(Cl)c2)[C@@]12C(=O)Nc1cc(Cl)c(F)cc12 , state its recorded % of compound remaining when incubated in human liver microsomes with NADPH.
Reply | 91.87%

Ask | CC(C)(C)C[C@H]1N[C@@H](C(=O)N[C@H]2CC[C@@H](O)C2)[C@H](c2cccc(Cl)c2)[C@@]12C(=O)Nc1cc(Cl)c(F)cc12 , same question.
Reply | 52.96%

Ask | CC(C)(C)C[C@H]1N[C@@H](C(=O)NC2CCC(NS(C)(=O)=O)CC2)[C@H](c2cccc(Cl)c2F)[C@@]12C(=O)Nc1cc(Cl)ccc12 (stereo partly shown) [MI-771] , same question.
Reply | 27.98%

Ask | CC(C)(C)C[C@H]1N[C@@H](C(=O)NCC[C@H](O)CN2CC[C@@H](O)C2)[C@H](c2cccc(Cl)c2)[C@@]12C(=O)Nc1cc(Cl)c(F)cc12 , same question.
Reply | 70.67%

Ask | CC(C)(C)C[C@H]1N[C@@H](C(=O)NCC[C@H](O)CNC(C)(C)C)[C@H](c2cccc(Cl)c2)[C@@]12C(=O)Nc1cc(Cl)c(F)cc12 , same question.
Reply | 57.08%

Ask | CC(O)C(O)CCNC(=O)[C@@H]1N[C@H](CC(C)(C)C)[C@]2(C(=O)Nc3cc(Cl)c(F)cc32)[C@H]1c1cccc(Cl)c1 (stereo partly shown) , same question.
Reply | 78.11%

Ask | CC(C)(C)C[C@H]1N[C@@H](C(=O)N[C@H]2CC[C@@H](O)C2)[C@H](c2cccc(Cl)c2F)[C@@]12C(=O)Nc1cc(Cl)ccc12 , same question.
Reply | 36.05%

FYI, the data here is from patent US9079913B2.
